Attribution: patent US20200017592A1

Each item that follows carries a reported koff.
# Assay Target: T1, human IL-36R extracellular domain expressed with a C-terminal myc-myc-hexahistidine tag (hIL-36R-MMH) (human, UniProt Q9HB29 20-337)
# T1 construct: also called Human IL-36R-MMH; REGN2105
# T1 sequence (Q9HB29 other isoform, or with tags, fused parts or gaps limits assumed): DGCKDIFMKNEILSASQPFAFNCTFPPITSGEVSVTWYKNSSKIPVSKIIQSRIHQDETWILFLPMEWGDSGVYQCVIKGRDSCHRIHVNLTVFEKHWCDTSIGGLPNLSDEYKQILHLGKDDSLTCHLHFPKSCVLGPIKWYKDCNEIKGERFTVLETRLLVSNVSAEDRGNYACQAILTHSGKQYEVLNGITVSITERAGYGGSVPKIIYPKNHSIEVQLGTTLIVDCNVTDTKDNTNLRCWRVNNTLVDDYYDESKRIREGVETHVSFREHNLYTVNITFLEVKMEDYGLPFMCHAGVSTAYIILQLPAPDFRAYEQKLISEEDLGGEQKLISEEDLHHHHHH
# Assay Notes: SPR Biacore T200, mAb captured on anti-hFc, 25C, PBS-T pH 6.0 running buffer
Numeric answer only, unit s⁻¹ assumed.

# Binder, Measured Quantity, Recorded Value
records = [
    ("H4H14757P (antibody, human IgG4 S228P, kappa, V domains shown, Fully human anti-IL-36R antibody) VH: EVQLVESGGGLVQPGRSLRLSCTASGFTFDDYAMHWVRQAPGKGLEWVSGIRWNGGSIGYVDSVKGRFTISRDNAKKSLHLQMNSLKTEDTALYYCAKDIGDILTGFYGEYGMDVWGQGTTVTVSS VL: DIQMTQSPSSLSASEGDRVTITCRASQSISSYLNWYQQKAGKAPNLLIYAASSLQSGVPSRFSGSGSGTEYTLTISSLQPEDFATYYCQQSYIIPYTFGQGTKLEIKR", "koff", 0.000887),
    ("H4H14700P2 (antibody, human IgG4 S228P, kappa, V domains shown, Fully human anti-IL-36R antibody) VH: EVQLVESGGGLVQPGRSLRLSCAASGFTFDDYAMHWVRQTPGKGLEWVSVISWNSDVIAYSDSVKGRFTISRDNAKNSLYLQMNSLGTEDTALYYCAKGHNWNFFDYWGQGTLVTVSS VL: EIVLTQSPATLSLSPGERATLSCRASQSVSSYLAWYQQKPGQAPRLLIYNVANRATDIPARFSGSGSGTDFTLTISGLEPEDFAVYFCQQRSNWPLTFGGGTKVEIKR", "koff", 0.00172),
]

Next item in the queue.
Query (binder): H4H14728P (antibody, human IgG4 S228P, kappa, V domains shown, Fully human anti-IL-36R antibody) VH: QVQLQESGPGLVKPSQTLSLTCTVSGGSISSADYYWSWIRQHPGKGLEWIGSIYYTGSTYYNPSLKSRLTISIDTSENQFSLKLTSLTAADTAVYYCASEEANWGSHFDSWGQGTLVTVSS VL: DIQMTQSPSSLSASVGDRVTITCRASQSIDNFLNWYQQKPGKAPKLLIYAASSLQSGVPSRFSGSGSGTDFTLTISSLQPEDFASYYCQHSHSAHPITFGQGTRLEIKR ; field requested: koff 0.000887
